Test: BET inhibitor-based combinations targeting novel dependencies in MECOM-rearranged (r) AML: AML-194 cell line (AID 2202237; note: potency is the fitted concentration of half-maximal effect; nearly all actives have a fitted effect of over 40% in size)
Details: AML-194 (MECOM-r AML) viability, CellTiter-Glo, 48 h; series mostly up to 46 µM
Records with an inconclusive call do not appear. Active and inactive are the calls of the source. Calls come from the whole dose curve; as a rule, active = well fitted inhibition curve with a large enough effect; inconclusive = small, poorly fitted or top-dose-only effect; inactive = flat fitted curve, though single readings scatter. Starred links: 1 amine or outer side, 2 acyl side, 3 side chain; linkers in the order of their positions; H or OH if unused. Positions of bridges follow the written chain, without caps; N, C: chain ends. Non-standard residues stand in square brackets, D forms with d. Residues, ends and D or L forms follow the SMILES beside them. Chains are numbered I, II in the order given. Actinocin(9to1) = Cc1c2oc3c(C)ccc(C(=O)[*:1])c3nc-2c(C(=O)[*:2])c(N)c1=O; NMeV = CN[CH](C(=O)O)C(C)C; Sar = CNCC(=O)O
Potency values by entry

Examples from the recorded data:
INSERT INTO results (compound, assay_value) VALUES
  ('COC1CC(C(=O)c2ccc3c(N)ncc(-c4ccc(-c5cnn(C)c5)cc4)c3n2)C1 (stereo not given)', '11.8 µM (active)'),
  ('Cc1c(O)cccc1C(=O)NC(CSc1ccccc1)C(O)CN1CC2CCCCC2CC1C(=O)NC(C)(C)C (stereo not given)', '26.3 µM (active)'),
  ('COc1cc2c(cc1OC(C)C)[C@H](c1ccc(Cl)cc1)N(c1ccc(N(C)CC3CCC(N4CCN(C)C(=O)C4)CC3)cc1)C(=O)C2 (stereo not given in full)', '10.5 µM (active)'),
  ('CC(C)(C)C(=O)OCOP(=O)(COCCn1cnc2c(N)ncnc21)OCOC(=O)C(C)(C)C', '2.95 µM (active)');

Please turn your attention to the following entry.
Exam item: # return recorded Potency for entry Cc1c2oc3c(C)ccc(C(=O)NC4C(=O)NC(C(C)C)C(=O)N5CCCC5C(=O)N(C)CC(=O)N(C)C(C(C)C)C(=O)OC4C)c3nc-2c(C(=O)NC2C(=O)NC(C(C)C)C(=O)N3CCCC3C(=O)N(C)CC(=O)N(C)C(C(C)C)C(=O)OC2C)c(N)c1=O (stereo not given) (I: TVP[Sar][NMeV] / II: TVP[Sar][NMeV]; ester I:1-I:C, II:1-II:C; linker I:N-II:N via Actinocin(9to1); configuration not given here)
Marked response: 0.0115 µM (active)

====

Catalogue of activity change, negative = inhibition values
Target: Aldehyde dehydrogenase, mitochondrial (Homo sapiens)
Test: qHTS for Inhibitors of the Aldehyde Dehydrogenase Family (ALDH2) Primary screen (AID 2061308);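 note: plate controls were vehicle for no effect and reference inhibitor for full effect; nearly all actives have a fitted effect of over 55% in size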
Conditions: ALDH2 enzyme inhibition qHTS, 1536-well; series mostly up to 56 µM
Inconclusive results are not listed. Active and inactive are the calls of the source. Calls follow the shape of the dose curve; as a rule, active = well fitted inhibition curve with a large enough effect; inconclusive = small, poorly fitted or top-dose-only effect; inactive = flat fitted curve, though single readings scatter.

Examples with answers:
INSERT INTO results (compound, assay_value) VALUES
  ('C[C@@H]1CN(c2c(F)c(F)c3c(=O)c(C(=O)O)cn(C4CC4)c3c2F)C[C@H](C)N1', '-0.742% [at 11.2 µM] (inactive)'),
  ('Nc1cccc(CNc2ccc(S(=O)(=O)Nc3nccs3)cc2)c1O', '2.56% [at 11.2 µM] (inactive)'),
  ('CC1(C)CC[C@]2(C(=O)O)CC[C@]3(C)C(=CCC4[C@@]5(C)CC[C@H](O[C@@H]6O[C@H](C(=O)O)[C@@H](O)[C@H](O[C@@H]7O[C@H](CO)[C@H](O)[C@H](O)[C@H]7O)[C@H]6O[C@@H]6O[C@H](CO)[C@@H](O)[C@H](O)[C@H]6O)C(C)(C)C5CC[C@]43C)[C@@H]2C1 (stereo partly drawn)', '-3.97% [at 11.2 µM] (inactive)');

Exam item: Report activity change, negative = inhibition under test system Aldehyde dehydrogenase, mitochondrial (Homo sapiens) for C[C@@H]1O[C@@H](O[C@H]2[C@H](OC(=O)[C@]34CCC(C)(C)C[C@H]3C3=CCC5[C@@]6(C)C[C@H](O)[C@H](O[C@@H]7O[C@H](CO)[C@@H](O[C@@H]8O[C@H](CO)[C@@H](O)[C@H](O)[C@H]8O)[C@H](O)[C@H]7O)[C@@](C)(CO)C6[C@H](O)C[C@@]5(C)[C@]3(C)C[C@H]4O)OC[C@H](O)[C@@H]2O)[C@H](O)[C@H](O)[C@H]1O[C@@H]1OC[C@@H](O)[C@H](O[C@@H]2OC[C@](O)(CO)[C@H]2O)[C@H]1O (stereo partly drawn) .
Marked response: -1.66% [at 11.2 µM] (inactive)

Exam item: Specify activity change, negative = inhibition for `CC[C@H](/C=C/[C@@H](C)[C@H]1CC[C@H]2[C@@H]3CC=C4C[C@@H](O)CC[C@]4(C)[C@H]3CC[C@]12C)C(C)C` , system Aldehyde dehydrogenase, mitochondrial (Homo sapiens).
Marked response: -2.53% [at 5.59 µM] (inactive)

Exam item: Look up Aldehyde dehydrogenase, mitochondrial (Homo sapiens) data: activity change, negative = inhibition of C[C@@H]1O[C@@H](O[C@H]2[C@H](OC(=O)[C@]34CCC(C)(C)C[C@H]3C3=CCC5[C@@]6(C)C[C@H](O)[C@H](O[C@@H]7O[C@H](CO)[C@@H](O)[C@H](O)[C@H]7O)[C@](CO)(C(=O)O)C6CC[C@@]5(C)[C@]3(C)C[C@H]4O)OC[C@H](O)[C@@H]2O)[C@H](O)[C@H](O)[C@H]1O[C@@H]1OC[C@@H](O)[C@H](O[C@@H]2OC[C@](O)(CO)[C@H]2O)[C@H]1O (stereo partly drawn) , then report it.
Marked response: 7.32% [at 11.2 µM] (inactive)

Exam item: Enter recorded activity change, negative = inhibition with Aldehyde dehydrogenase, mitochondrial (Homo sapiens) for CNC1CN(c2ccc3c(=O)c(C(=O)O)cn(-c4nccs4)c3n2)CC1OC (stereo not drawn) here.
Marked response: 2.97% [at 11.2 µM] (inactive)

Exam item: # return activity change, negative = inhibition for CC(=O)O[C@@H]1C[C@]2(C)[C@@]3(CCC4[C@@]5(C)CC[C@H](O[C@@H]6O[C@H](C(=O)O)[C@@H](O)[C@H](O[C@@H]7O[C@H](CO)[C@H](O)[C@H](O)[C@H]7O[C@@H]7O[C@@H](C)[C@H](O)[C@@H](O)[C@H]7O[C@@H]7OC[C@](O)(CO)[C@H]7O)[C@H]6O[C@@H]6O[C@H](CO)[C@H](O)[C@H](O)[C@H]6O)C(C)(C)C5CC[C@]42C)O[C@@H](O)[C@]12C3CC(C)(C)[C@@H](OC(=O)/C=C/c1ccc(O)c(O)c1)[C@@H]2OC(=O)/C=C/c1ccccc1 (stereo partly drawn) , test system: Aldehyde dehydrogenase, mitochondrial (Homo sapiens)
Marked response: 3.11% [at 11.2 µM] (inactive)

====

Molecular target: Aldehyde dehydrogenase, mitochondrial (Homo sapiens)
Experiment: qHTS for Inhibitors of the Aldehyde Dehydrogenase Family (ALDH2) Primary screen (AID 2061308);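 note: plate controls were vehicle for no effect and reference inhibitor for full effect; nearly all actives have a fitted effect of over 55% in size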
Conditions: ALDH2 enzyme inhibition qHTS, 1536-well; series mostly up to 56 µM
Records with an inconclusive call do not appear. Calls of active or inactive are those of the source. The call rests on the fitted dose curve; in most records, active means well fitted inhibition curve with a large enough effect; inconclusive means small, poorly fitted or top-dose-only effect; inactive means flat fitted curve, though single readings scatter.
value.type: outcome

Some solved entries appear below for comparison.
INSERT INTO measurements (compound, assay_value) VALUES
  ('Cc1nc(CNc2ncnc3ccc(-c4ccoc4C)cc23)cs1', 'inactive'),
  ('Cc1ccc(NS(=O)(=O)c2cc3c(cc2Cl)NC(=O)CO3)cc1C', 'inactive'),
  ('C/C=C/C=C/C=C/C(=O)O[C@@H]1C=C2COC(=O)[C@]2(O)[C@@]2(C)CCCC(C)(C)[C@H]12', 'inactive'),
  ('CCC(O)(c1nnc(NCc2ccc3c(-c4ccc(F)cc4)cc(=O)oc3c2)o1)C(F)(F)F (stereo unspecified)', 'inactive'),
  ('Cc1ccc(S(=O)(=O)Nc2cnccc2C(=O)Nc2ccc(-c3nc4ccccc4[nH]3)cc2)cc1', 'inactive');

Exam item: Return outcome (reported value) for this compound: `Cc1cc(C)nc(NC(=S)N2CCN(c3nccc4occc34)CC2)c1`
Marked response: inactive

====

Target: Aldehyde dehydrogenase, mitochondrial (Homo sapiens)
Test: qHTS for Inhibitors of the Aldehyde Dehydrogenase Family (ALDH2) Primary screen (AID 2061308);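 note: plate controls were vehicle for no effect and reference inhibitor for full effect; nearly all actives have a fitted effect of over 55% in size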
Details: ALDH2 enzyme inhibition qHTS, 1536-well; series mostly up to 56 µM
Inconclusive results are not listed. Activity calls are given as the source filed them. The call rests on the fitted dose curve; in most records, active means well fitted inhibition curve with a large enough effect; inconclusive means small, poorly fitted or top-dose-only effect; inactive means flat fitted curve, though single readings scatter.
value.type: outcome

# annotated cases, reported outcome shown
INSERT INTO measurements (molecule, assay_value) VALUES
  ('O=C1CCCC2=C1C(c1[nH]ncc1Cl)NC(=NCCc1cccnc1)N2 (stereo not given)', 'inactive'),
  ('Cc1ccsc1CN(C)c1ncnc2ccc(-c3ccoc3)cc12', 'inactive'),
  ('Nc1cccc(OCCn2c(CCNC(=O)C3CCCCC3)nc3ccccc32)c1', 'inactive'),
  ('Cc1ccc(S(=O)(=O)N2CCN(c3nc(C#N)nc4ccccc34)CC2)cc1', 'inactive'),
  ('COc1cc(O)c(C(CC(=O)N2CCC(C)CC2)c2ccc(C)cc2)c(OC)c1 (stereo not given)', 'inactive'),
  ('Cc1cnc(-c2ccccc2C(C)C)nc1NCC1CCN(C)CC1', 'inactive'),
  ('O=C1CCCC2=C1C(c1[nH]ncc1Cl)N=C(Nc1nc3cc([S+](=O)([O-])N4CCCC4)ccc3o1)N2 (stereo not given)', 'inactive'),
  ('O=C(OCC#CCSc1nnc(-c2ccc(F)cc2)o1)c1ccc(F)cc1', 'inactive');

Exam item: Could you please provide reported outcome for `O=C(NCc1cccnc1)C1CCN(S(=O)(=O)c2cccs2)CC1` ? Thanks!
Marked response: inactive

Exam item: Answer with the recorded outcome of `Cn1ccc2cc(-c3ccc4ncnc(NCc5cccc(F)c5)c4c3)ccc21` only.
Marked response: inactive
